EXPERIMENT_DESCRIPTION: Inhibition of bovine tubulin polymerization assessed as concentration required for 50% Vmax inhibition by spectrophotometry
Design: species or system Bos taurus
RESULT_TYPE: pIC50
Just the number, please; pIC50 means minus log10 of the concentration in mol/L.

Which measured pIC50 value corresponds to `COc1ccc([C@@H]2[C@@H](c3cccs3)C(=O)N2c2cc(OC)c(OC)c(OC)c2)cc1O` ? 5.86

----------
EXPERIMENT_DESCRIPTION: Cytotoxicity against CD-1 mouse mammary epithelial cells seeded at 25000 cells/ml assessed as viable cells at 10 uM after 72 hrs by alamar blue assay
Type: cell-based, Epithelial cell
ASSAY_CONDITIONS: read-out: Activity
RESULT_TYPE: viability at 72 h, 10 µM (%)
Use % as the unit, but write only the number.

Which measured viability at 72 h, 10 µM value corresponds to `COc1ccc([C@@H]2[C@@H](c3cccs3)C(=O)N2c2cc(OC)c(OC)c(OC)c2)cc1O` ? 71.2

src = ChEMBL document CHEMBL1765074
